test: soluble on expression in E. coli; label from the status in PepcDB or PDB records
assay_endpoint: soluble on expression in E. coli

Request: Param item = `MAHHHHHHMFYTGINEPRPTAMNFSFDGLHFVSAHTDDAVRFIDVGNMTNTDVIICDAFGVHNVRYTHSSSVVCVAPRFHLDGHLHLLNTETSQFFGEMAYLNDAESEMLPVANTPVYSTLAQCPATDVIGAVVVAKGRLALFHPLISGCIAATPERSIVGSRACVQFSRDGHRIAIGDDHRIVLLDRRSFFGAPLAVLENKHVFTTSTSLTRCKGLEFSADANRLLLTSSSGEVVVYDWLRGETVANYFHGDARRHFVGSADAIGAQHVFPYQSASPILQLTSSMTGGRHLLVYAGCPSNSAASTRQGRLLYELQSKDSDVPVAIAVNPRLQLAATAARSITWWAFHNSVVEAYATLTEAGMTAAD` ; retrieve measured soluble on expression in E. coli.
Result: not soluble

Request: Param item = `MLRHKEPGSGSGGGVYWVDSQQKRYVPVKGDHVIGIVTAKSGDIFKVDVGGSEPASLSYLSFEGATKRNRPNVQAISSRLLEHHHHHH` ; retrieve measured soluble on expression in E. coli.
Result: not soluble

---

assay: soluble on expression in E. coli; label from the status in PepcDB or PDB records
assay_endpoint: soluble on expression in E. coli

Request: Param item = `GSHMNQCPEHSQLTTLGVDGKEFPEVHLGQWYFIAGAAPTKEELATFDPVDNIVFNMAAGSAPMQLHLRATIRMKDGLCVPRKWIYHLTEGSTDLRTEGRPDMKTELFSSSCPGGIMLNETGQGYQRFLLYNRSPHPPEKCVEEFKSLTSCLDSKAFLLTPRNQEACELSNN` ; retrieve measured soluble on expression in E. coli.
Result: soluble

Request: Param item = `LDDYDWFAGNISRSQSEQLLRQKGKEGAFMVRNSSQVGMYTVSLFSKAVNDKKGTVKHYHVHTNAENKLYLAENYCFDSIPKLIHYHQHNSAGMITRLRHPVS` ; retrieve measured soluble on expression in E. coli.
Result: soluble

Request: Param item = `MGSDKIHHHHHHMAVVQHHLPLSARLPARGIFEDDWRDRPSKRHPYPVILIHGTGVTKGDWMELGHALRSLGYAVWAPDFGMRSTAAVAESAAQVGAYIDAVLTVTKAKKAIVVGHSQGGILARYWMHNLDGANKVSHLISLAVPHHGTSHGGMMSPLGRTPRGTAVIDSLITGFFGASGFEMLHDSELIAQLNEHGDTLPYVYYSCIATRSDTIIQPVESCFLHGKLVRNIYAQAVSKHAIILHEDMPHDPRVRRLVIAEIERVERLTIPS` ; retrieve measured soluble on expression in E. coli.
Result: not soluble

Request: Param item = `MSNKTSIEGLSALLHTLMLIPQHRWITVRELQQQLALLDIHRTTRSIKRYLDEVIVEVFNVECDSMSMPHVYRKTSEQLLKLNKQEMLYWQLTNKYLLPLVPDALNYGQGSSSERDKPLPHKASAHSKEQEWLAKVHVVLPTIREWNDEQRQVLNAVHTALLHNRMLKISSQVLQQEKALIEPLGLSVQCDALLLLFRLSGQHTIRTLALPLIDEATVSTFSFTYPTDFNLERFMREHDGVSAS` ; retrieve measured soluble on expression in E. coli.
Result: not soluble

Request: Param item = `MEEDKNTLDLHTEAREEDRVAKAVALFKEGYNCSQSVVTAFADLYGFTREQALHMSASFGGGIGRMRETCGAACGMFLLAGLEKCAIEGKDRESKAANYALVQELAEEFKKRNGALRCADLLGLSGKEPVVSTPEARTERYYAKRPCARMVEEAARIWSEHLEKQKK` ; retrieve measured soluble on expression in E. coli.
Result: not soluble

Hello, I would appreciate it if you could give soluble on expression in E. coli for each entry below.
1. ELKAKILHIPGDELINHNNQILEEYDHSQNTLIVGPNHVNSNIIHALTASEDTLFYKHNGIMPKALLRAMLQDITNSNQSSGGSTITQQLVKNQVLSNKKTYSRKANEIILATRVENLLSKDEIIYTYLNIVPFGHDYNGANITGISSASYSLFGIPAKDLNIAQSAYLIGLLQSPYGY
2. AHHHHHHGSDGLTAQEFLTLVKLERGMYLSKEEKDDVERIKEKNKRVLELIKDHHKDFDVYLTGHIDFDNLLTMYEIYKELKKRGVNVYYPGLFWANWREKGEIEYKIKNNAKILLVITQTISFGTSVDVGFFIHRKINEEEAKIVFCYTGPSYEFESLKTHPASIYIDYFTRDIEDAIEKTLEFLSL
3. MIILMSKPLSEKKTSNNISDLIYGLLKEDIFNFVLKPGQRFTETDLSERYEASRTPIRQALYRLEQEGFVHVHFRSGWEIRPLEFKYYQELFDLRMILEKEAVKRLCELEHPEQLPALIELKKMWLIAPVDYLTDTKTLVLQSEDFHCALVRAAGNQQIAKIHQEASEKIRIVLSLGAMKEFDIAHAYQDHGAILQCILNKDAEQAIHLAEHHVLESIHEVKNITLQMISAIH

Result:
not soluble
soluble
not soluble

---

assay: soluble on expression in E. coli; label from the status in PepcDB or PDB records
assay_endpoint: soluble on expression in E. coli

The following sequences have reported results that may help.
Request: Param item = `MSREQAILVGCQLAGVDDERFRYSMEELVSLVATANGEVVAEVTQKREAPHPATYIGKGKTEELAAIVKQLEPDVVIFNSELSPSQARNLTKMLGEVKVIDRT` ; retrieve measured soluble on expression in E. coli.
Result: not soluble

Request: Param item = `MSLADFTHLLRPSNFDELIGQDHLSKDKAPLRVLCQKGVLGHSFFFGPSGTGKTSIARIIAKTMELPFYEFNATSIKIEQLRAIFEQYKNTLQKPLIFIDEVHRLAKNQQEVLLPVMENNSALIIGASTENPFFSLTSAIRSRSMLFELHHISNEALSRLLRRALDSSDITCSDEALEYLIKSSGGDARSMLKLLEFASNIGTHITLDILKSLRPNALSVGSSEAGVHYDLSSAMIKSIRGSDMDAAIYYLARLIDGGESAEFIARRLVILASEDVGNANPQALTLATSAMTSVSKIGYPEARIILSQAVIYLCASPKEGHHHHHH` ; retrieve measured soluble on expression in E. coli.
Result: not soluble

Request: Param item = `MFSGFSSFGGGNGFVNMPQTFEEFFRCYPIAMMNDRIRKDDANFGGKIFLPPSALSKLSMLNIRYPMLFKLTANETGRVTHGGVLEFIAEEGRVYLPQWMMETLGIQPGSLLQISSTDVPLGQFVKLEPQSVDFLDISDPKAVLENVLRNFSTLTVDDVIEISYNGKTFKIKILEVKPESSSKSICVIETDLVTDFAPPVGYVEPDYKALKAQQDKEKKNSFGKGQVLDPSVLGQGSMSTRIDYAGIANSSRNKLSKFVGQGQNISGKAPKAEPKQDIKDMKITFDGEPAKLDLPEGQLFFGFPMVLPKEDEESAAGSKSSEQNFQGQGISLRKSNKRKTKSDHDSSKSKAPKSPEVIEID` ; retrieve measured soluble on expression in E. coli.
Result: soluble

Request: Param item = `MGQKKYVELSKDIFIFSYLCGGINFTDIANLTQENIVNGRLHYIRQKTGKLIKIGIPQEAMQIIKKYTDESNGYLFPILNVKVHKTALQKQNRIHKIRGKVNDILKTLGKRLGIEANITTYVARHSFASVLKKSGVNIALISEALGHSDLATTQIYLDSFDNEQVDEAMKNLLEHHHHHH` ; retrieve measured soluble on expression in E. coli.
Result: soluble

Request: Param item = `MSLKQIIDNVEVYILTGPKEKRPHWVSHFIVPTANELLVKIKTKQGLEGFGIATNYSDINPVIEVFKTDFLDNFIGMDATCPEVIYEKIFNLTSQKLSFEKKWGKEPLIRISAAIDIACWDLIGKASGFPLYKLFGGYRDKVPCYVTCAYYRDGKDNKELKDEIEMLVGQGHQGFKGKVGGLSLREDLERMNIIRDVIGDEKSLMIDVNRAWDLKTASEAVNLLKPINPFWLEEPVRWADDRRELKLLSQKTEIPISGGESELTIYGCRSMLEEQAIQILQFDCTMFGGFTAGKKLSALCEVNHVDIAPHHDCFIHAHIVAGSPSGLIVESFTDPERDPLQAELFTNPPKIENGWLYLNEEPGLGLNLSNDALAKFGNKILEGHHHHHH` ; retrieve measured soluble on expression in E. coli.
Result: soluble

Proceeding to the next sequence to report its soluble on expression in E. coli.
Request: Param item = `MNKKILVVDDEESIVTLLQYNLERSGYDVITASDGEEALKKAETEKPDLIVLDVMLPKLDGIEVCKQLRQQKLMFPILMLTAKDEEFDKVLGLELGADDYMTKPFSPREVNARVKAILRRSEIRAPSSEMKNDEMEGQIVIGDLKILPDHYEAYFKESQLELTPKEFELLLYLGRHKGRVLTRDLLLSAVWNYDFAGDTRIVDVHISHLRDKIENNTKKPIYIKTIRGLGYKLEEPKMNE` ; retrieve measured soluble on expression in E. coli.
Result: soluble
